// provenance: PubChem BioAssay (NCI)

For each record, write down the corresponding growth inhibition.
Assay: NCI Yeast Anticancer Drug Screen. Data for the mec2-1 strain (AID 157)
Details: S. cerevisiae mec2-1 strain, at 50.0 µM, stronger effect = higher value
About 79,000 compounds went through this panel and 15% of them were active in at least one assay; those are over-represented in the sample as a whole.
Answers are plain numbers, in %.

Examples from the recorded data:
O=C1c2ccccc2C(=O)N1CC1CC(S(=O)(=O)c2ccccc2)=NO1 (configuration not stated) | -15.2
Cc1ccc([N+](=O)[O-])cc1NC(=O)Cc1ccccc1 | 29.8
Cc1cc(N=Cc2cccs2)cc(Cl)c1O | 14.4
ON=C1c2cc(Cl)ccc2-c2ccc(Cl)cc21 | 4.05
O=C(O)CNc1cc(-c2ccccc2)nc(NCC(=O)O)n1 | -12.3
CC(C)(C)/C(=N\[N+](C)(C)C)c1ccccc1 | 6.4
O=C1c2ccccc2C(=O)N1CC(O)COCc1ccccc1 (configuration not stated) | -25.8
CN(C)c1nc2ccc(Cl)cc2c(=O)[nH]1 | 4.55
CCCCSc1ncnc2nc(C)[nH]c12 | -20.6
FS(F)(F)(F)(F)c1cccc(NC(=S)SCc2ccc(Cl)cc2)c1 | 24.8

# batch: return growth inhibition for each of the 2 compounds below
1. N#C/C(=N/Nc1ccccc1)c1ccccc1
2. CCCCSc1nc(NCC)nc(NCC)n1

9.1
38.9
